The values you see were collected from the supplement of paper PMC10567573.

B1: C19orf51 (parent)
chain: FAPQTGARPSETFARFCKSQESAL

variants of: B1; test: protein stability index of a GFP-peptide fusion (GPS, HEK-293T) (PSI 1-6); higher = more stable; settings: c terminus: a fixed tail appended;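 note: lentivirally expressed fusions sorted by FACS into six bins by GFP to DsRed ratio, PSI derived from sequencing read proportions per bin multiplied by bin number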
Recorded Metric: protein stability index
# respond with the number and nothing more

Worked set:
FAPQTGARPSETFARLCKSQESAL [F16L] = 3.42
FAPQTGARPSETFARFAKSQESAL [C17A] = 2.9
FAPQTGARPSEVFARFCKSQESAL [T12V] = 2.77
FAPQTGARPSETFARFCKIQESAL [S19I] = 2.35
FAPQTGARPSETFARSCKSQESAL [F16S] = 2.79

// below: protein stability index requested for another variant
Problem: Let me know recorded protein stability index for FAPQTGARPTETFARFCKSQESAL [S10T] , thanks.
Solution: 2.25
